# Tested on: SK-OV-3 ovarian
# experiment: NCI tumour cell line growth inhibition, 48 h
Provide the reported TGI of each item.

CCCCCN(CCCCC)C(=O)[C@@H](CCC(=O)OCc1ccccc1)NC(=O)c1cc2ccccc2[nH]1    > 100 µM
C=CCSc1n[nH]c(-c2cccs2)n1    > 100 µM
O=C1CCC(=O)c2cc(Br)ccc2N1    > 100 µM
COc1ccc(C(=O)C(C(=O)C(=O)Nc2nc3ccc(OC)cc3s2)c2ccc(OC)cc2)cc1 (stereo not given)    > 100 µM

Returns the measured TGI for the input compound. Input: Cc1ccc(S(=O)(=O)C2=c3ncccc3=C3C(=O)c4ccccc4C(=O)C32)cc1 (stereo not given)
> 100 µM

###

# Test system: MALME-3M melanoma
# experiment: NCI tumour cell line growth inhibition, 48 h
recorded metric: TGI

Some compounds with recorded TGI:
NC1=C(c2nc(-c3cc4ccccc4oc3=O)cs2)C(c2ccco2)c2c(c3ccccc3oc2=O)O1 (configuration not stated)    > 150 µg/mL
CC(O[Si](C)(C)C(C)(C)C)[C@H](NC(=O)OCC(Cl)(Cl)Cl)C(=O)O (some centres not stated)    > 100 µM
c1ccc(C2CC(N3CCOCC3)=Nc3ccccc3N2)cc1 (configuration not stated)    > 100 µM

// for each compound below, give its TGI
1. CC[C@H](CCCCC1CC[C@@H]2CC(=O)C[C@H]12)OC (some centres not stated)
2. O=C1OC(c2ccc([N+](=O)[O-])cc2)=N/C1=C\c1ccc(O)cc1
3. N/C(=N\C(=S)N1CCCCC1)N1CCCCC1
4. CN1N=C(c2ccncc2)OC1c1ccc(Cl)c(Cl)c1 (configuration not stated)
5. O=C(c1nsc(Cl)c1Cl)N1CCCCC1
6. Nc1ccc(-c2ccc(-c3nc4ccccc4[nH]3)cc2)cc1
7. COc1ccc2cc(C(=O)/C=C/c3ccc(OC)c(OC)c3)ccc2c1

["> 100 µM", "> 100 µM", "> 100 µM", "> 100 µM", "> 100 µM", "> 52.7 µM", "> 100 µM"]

// for each compound below, give its TGI
1. CC(NC1CCC[C@H]1O)c1ccccc1 (mixture of isomers)
2. CCC(=S)N(C)O

> 100 µM
> 100 µM

###

# Tested on: KM20L2 colon
# experiment: NCI tumour cell line growth inhibition, 48 h
Where a SMILES comes first, the peptide text is derived from it. [ ]: non-standard residue; d: D form. 2Nal = N[CH](Cc1ccc2ccccc2c1)C(=O)O
recorded metric: TGI

Some molecules with recorded TGI:
COc1cc(C2C(C(=O)O)=C(C)Oc3cc4c(cc32)OCO4)cc(OC)c1OC (configuration not stated)    > 100 µM
CCC12C=CCN3CC[C@]4(C(=C(C(=O)OC)[C@@H]1Nc1ccn(C5OC(COC(C)=O)C(OC(C)=O)C5OC(C)=O)c(=O)n1)Nc1ccccc14)C32 (some centres not stated)    8.19 µM
O=C(O)C1Cc2nc[nH]c2CN1 (configuration not stated)    > 100 µM
Nc1nc(N)c(-c2ccccc2)c(C(=O)Nc2ccc(Cl)c(Cl)c2)n1    > 100 µM
c1ccc2cc3n[se]nc3cc2c1    > 100 µM
CC(NC(=O)C(N)Cc1ccccc1)C(=O)NC(Cc1ccc(O)cc1)C(=O)NC(Cc1c[nH]c2ccccc12)C(=O)NC(CCCCN)C(=O)NC(C(=O)NC(C)C(=O)NC(Cc1ccc2ccccc2c1)C(N)=O)C(C)C (configuration not stated) (H-FAYWKVA[2Nal]-NH2; configuration not given here)    78 µM

Continue with the next molecule.
Fill in the recorded TGI for this molecule, with KM20L2 colon as test system: C=C(C)C1CC[C@]2(C(=O)O)CCC3(C)[C@H](CCC4[C@@]5(C)CC[C@H](OC6OC(CO)C(O)C6OC6OC(C)C(O)C(O)C6O)[C@@](C)(CO)C5CC[C@]43C)C12 (some centres not stated)
> 100 µM
